The reported measurements were obtained from patent US20110142761A1.

molecular target: T1, human IL-1β (human, UniProt P01584 117-269); assay: SPR (Biacore 3000), antibody captured, human IL-1β as analyte, 25 C
T1 construct: it has 153 residues and begins APVRS; also called hIL-1β; recombinant purified human IL-1β
reported endpoint: kon
Numeric answer plus unit only.

Task: Could you tell me which kon is on file for humanized anti-human IL-1β antibody 1B12.2 (antibody, V domains shown, Cloned into IgG expression vectors and made as full-length humanized antibody; also called h1B12VH.1a/h1B12VL.1b; combination 2) VH: EVQLQESGPGLVKPSETLSLTCTVSGFSLSDYGVSWIRQPPGKGLEWLGLIWGGGDTYYNSPLKSRLTISKDNSKSQVSLKLSSVTAADTAVYYCAKQRTLWGYDLYGMDYWGQGTLVTVSS VL: ETTVTQSPSSLSASVGDRVTITCITSTDIDVDMNWYQQKPGKPPKLLISQGNTLRPGVPSRFSSSGSGTDFTFTISSLQPEDFATYYCLQSDNLPLTFGQGTKLEIK ?
Output: 6.13e+06 M⁻¹ s⁻¹
